# System: RXF 393 renal
# measurement.protocol: NCI tumour cell line growth inhibition, 48 h
value.type: TGI

Quick one: TGI of "CCC/C=C/c1cc2c(cc1O)CC[C@@H]1[C@@H]2CC[C@]2(C)[C@@H](O)CC[C@@H]12" ? 33.2 µM

Consider the compound "C=C(C[C@](O)(C(=O)/C=C/c1ccc(Cl)cc1)C(=O)OC)c1ccccc1" and give its measured TGI. 3.31 µM

What value of measured TGI is listed for "Cn1c2ccccc2c2ccc3c(c21)C(=O)c1ccccc1C3=O" ? 32 µM

I would be grateful if you could share the reported TGI for CCCCCCCCCCCCN(CC(O)C(O)C(OC1OC(CO)C(O)C(O)C1O)C(O)CO)C(=O)CCCCCCCCCCC (configuration not stated) . 67.5 µM

Could you tell me which TGI is on file for "Cc1cc2c(cc1C(=O)CCC(=O)O)CC1(C2)Cc2cc(C)c(C(=O)CCC(=O)O)cc2C1" ? > 100 µM

Bench note: what TGI did "Cc1cc2cc3c(cc2c(-c2ccc([N+](=O)[O-])cc2)n1)OCO3" show? > 100 µM

Which TGI value belongs to "CO/C(N)=C(\C#N)N=Cc1ccco1" ? > 100 µM

Could you tell me which TGI is on file for COC(=O)CC(c1cn(S(=O)(=O)c2ccc(C)cc2)c2ccccc12)C1C[C@@H](C(=O)OC)N(C(=O)OC(C)(C)C)C1=O (some centres not stated) ? > 100 µM

// returns reported TGI for input "CCc1ccccc1NC(=O)C1=C(C)NC(C)=C(C(=O)Nc2ccccc2CC)C1c1ccc2c(c1)OCO2" 94.1 µM

Requested read-out: TGI. Entry: "COc1ccc(-c2onc(N)c2-c2cc(OC)c3c(c2)OCO3)cc1" 19 µM

# get_value(readout='TGI', item= "O=C(N/C(=C\c1cccc([N+](=O)[O-])c1)c1nc2ccc([N+](=O)[O-])cc2[nH]1)c1ccccc1" ) > 100 µM

Which TGI value belongs to "Cc1cccc(C(C)C)c1NC(=O)/C(Cc1c([N+](=O)[O-])cccc1[N+](=O)[O-])=N/NC(=O)CC#N" ? > 100 µM

Form field: reported TGI of "CN1CCN(c2ccc3[nH]c(-c4cc(O)c5c(nc(CO)n5C)c4O)nc3n2)CC1" > 100 µM

Any idea what TGI was measured for Cc1ccc([N+](=O)[O-])cc1S(=O)(=O)Nc1ccc(C2=NN(c3ccc([N+](=O)[O-])cc3[N+](=O)[O-])C(c3cccs3)C2)cc1 (configuration not stated) ? 54.3 µM

Field request: TGI | item: "O=c1[nH]nc(-c2ccccc2)n1-c1ccncc1" > 100 µM

Give its TGI value. Item: "Cc1ccc2c(c1)Sc1c(ccc3ccccc13)N2" > 100 µM

Looking for the measured TGI of O=C(O)C1CCCN(CCc2c[nH]c3ccccc23)C1 (configuration not stated) , can you help? > 100 µM

// lookup TGI for "O=[N+]([O-])c1ccc2c(c1)S(=O)(=O)N1Cc3ccccc3CCN21" > 100 µM

Please report the recorded TGI for "O=C1N[C@H]2c3c(Cl)sc(Cl)c3[C@@H](O)[C@H]2O1" . > 100 µM

Need TGI, item "CCOC(=O)N(NC(=O)NC(C)C)c1ccccc1" > 100 µM

Using the record for "O=C1c2[nH]c3ccc(Br)cc3c2CCN1Cc1ccc(Cl)cc1" , report its TGI. 36.4 µM

Item "Cc1cc(S(=O)(=O)Nc2nc(N)n(-c3ccccn3)n2)c(S)cc1Cl" has what recorded TGI? > 100 µM

Tell me the measured TGI of "COc1ccccc1NC(=S)Nc1cc(C)cc(C)n1" , please. > 100 µM

If you can, please state the reported TGI value of COC1(C)CP(=O)(OC(C)C)CC(C)=C1Cl (configuration not stated) . 55.2 µM

Form field: reported TGI of CNC(=O)C1CCc2nnc(-c3ccccc3)n21 (configuration not stated) > 100 µM

Bench note: what TGI did N#CC1C(=O)N(c2ccccc2)NC12OC(=O)c1ccncc12 (configuration not stated) show? > 20 µM

Consider the compound shown here: N#CSC1CCCCNC1=O (configuration not stated) What is its recorded TGI? 34 µM

Would you mind telling me what TGI value was observed for CCCC/C=C/C/C=C/CCCCCCCCC(=O)OCC1CCCN2CCCCC12 (configuration not stated) ? > 100 µM

// returns reported TGI for input COc1ccc(/C=C2\CCC(C)C3C2=NN(c2ccccc2)C3c2ccc(OC)c(OC)c2)cc1OC (configuration not stated) 16.3 µM

Which TGI reading was recorded for the compound COC(=O)C1=C(O)C(C(=O)OC)[C@]2(O)[C@H](C(=O)OC)[C@H]1C[C@@H](c1ccc(Cl)cc1)[C@H]2C(=O)OC (some centres not stated) ? 19.1 µM

Return reported TGI; argument: "c1ccc(-c2nc3ccccc3n3c(CN4CCCCC4)nnc23)cc1" > 100 µM

Entry Nc1nc2c(nnn2C2CC(O)C(CO)O2)c(=O)[nH]1 (configuration not stated) : reported TGI = ? 33.8 µM

Could you share which TGI value was measured for "O=C1c2cccc([N+](=O)[O-])c2C(=O)N1c1ncn[nH]1" ? > 100 µM

Endpoint output: TGI of "CC/C=C\C[C@H](F)C/C=C1/C(=O)C=C[C@@H]1C/C=C\CCCC(=O)O" . Value? 10.2 µM

Please report the recorded TGI for "Cc1ccc(C(=O)NC(C)C)cc1-c1ccc(C(=O)NCC2CC2)cc1" . > 25 µM

Form field: reported TGI of "O=C1NC(=O)C(CCC(=O)c2ccc3ccccc3c2)C(=O)N1" > 100 µM

# query: TGI of entry "COc1cc(C(=O)CBr)c(OC)cc1C" > 100 µM

For the compound shown here, "O=[N+]([O-])c1ccc(C=NC2CCCCC2)cc1" , give the reported TGI. > 100 µM

// TGI lookup, key: "CCOC(=O)c1oc2cc3c(c4c2c1-c1ccccc1N4C)C=CC(C)(C)O3" 28.9 µM

Endpoint output: TGI of "CCOC(=O)c1c(NC(=O)c2cccs2)sc2c1CCC2" . Value? > 100 µM

Value lookup for TGI; key = "Cc1nc(-c2cc3c(ccc4ccccc43)oc2=O)cs1" > 100 µM

Need TGI, item "O=C(O)/C=C(\c1nc2ccc([N+](=O)[O-])cc2[nH]1)c1cc(Cl)ccc1O" 21.2 µM
